These measurements were taken from patent US20260001914A1.

# target: KRAS-G12D protein (Homo sapiens, UniProt P01116, G12D)
# Sequence (P01116 1-188 isoform P01116-2 G12D): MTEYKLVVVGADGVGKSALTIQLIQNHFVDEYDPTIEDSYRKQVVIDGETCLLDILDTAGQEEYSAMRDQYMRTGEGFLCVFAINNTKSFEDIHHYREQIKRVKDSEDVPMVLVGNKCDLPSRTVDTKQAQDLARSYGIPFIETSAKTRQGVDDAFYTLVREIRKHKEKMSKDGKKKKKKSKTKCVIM
# protocol_summary: SOS-mediated nucleotide exchange assay (BODIPY-GDP / Tb-streptavidin TR-FRET)
# Format: biochemical
*1 amine or outer side, *2 acyl side, *3 side chain or, on linkers, in order; H or OH if unused. Where a SMILES comes first, the peptide text is derived from it. Bridges are numbered along the chain shown (N, C = ends). [ ]: non-standard residue; d: D form. X34 = O=C(C[C@@H](Cc1ccccc1)C(=O)[*:2])C12CC(CN[*:1])(C1)C2; NMeNva(5-imidazol-1-yl) = CN[C@@H](CCCn1ccnc1)C(=O)O; Phe(4-guanidino) = N=C(N)Nc1ccc(C[C@H](N)C(=O)O)cc1; X22 = CNC(=N)N(C)CCC[C@@H](C(=O)[*:2])N(C)[*:1]; Ala(pyrimidin-5-yl) = N[C@@H](Cc1cncnc1)C(=O)O; X71 = COc1c(F)cc(C[C@H](N[*:1])C(=O)[*:2])cc1F; X20 = CN([C@@H](Cc1cnco1)C(=O)[*:2])[*:1]; Nle(5,5-F2) = CC(F)(F)CC[C@H](N)C(=O)O; 1Nal = N[C@@H](Cc1cccc2ccccc12)C(=O)O; Ala(4-THP) = N[C@@H](CC1CCOCC1)C(=O)O; X21 = O=C([C@@H]1C[C@H]1CN[*:1])[*:2]; Phe(2-F) = N[C@@H](Cc1ccccc1F)C(=O)O; NMe3Pal = CN[C@@H](Cc1cccnc1)C(=O)O; X1 = O=C(C12CC(CN[*:1])(C1)C2)[*:2]; X17 = O=C([C@H](CCCCF)N[*:1])[*:2]; Aha = [N-]=[N+]=NCC[C@H](N)C(=O)O; Ala(cPr) = N[C@@H](CC1CC1)C(=O)O; NMeF = CN[C@@H](Cc1ccccc1)C(=O)O; PhLac = O=C(O)[C@@H](O)Cc1ccccc1; 3Pal = N[C@@H](Cc1cccnc1)C(=O)O; Ahp(2) = CCCCC[C@H](N)C(=O)O; Cba = N[C@@H](CC1CCC1)C(=O)O; NMeNle = CCCC[C@H](NC)C(=O)O; αMeC = C[C@](N)(CS)C(=O)O; NMeA = CN[C@@H](C)C(=O)O; Nle = CCCC[C@H](N)C(=O)O
API: label(entry) gives rule met if the entry's EC50 is strictly smaller than 100 nM; on equality or larger values it gives rule not met.

compound	assigned_label
CCCCC[C@@H]1NC(=O)[C@H](Cc2ccc(OC)cc2)NC(=O)[C@H](CC2CCC2)NC(=O)[C@H](Cc2ccc(NC(=N)N)cc2)NC(=O)[C@H](CCCN(C)C(=N)NC)N(C)C(=O)[C@H](Cc2ccccc2)NC(=O)CSC[C@@](C)(C(N)=O)NC(=O)[C@H](Cc2ccccc2)N(C)C1=O [compound 381] ({CH2CO}-F[X22][Phe(4-guanidino)][Cba]Y(Me)[Ahp(2)][NMeF][αMeC]-NH2; thioether N-8)	rule met
C[C@H]1C(=O)N[C@@H](Cc2cncnc2)C(=O)N[C@@H](CC2CC2)C(=O)N[C@@H](Cc2ccccc2F)C(=O)N[C@@H](CCC(C)(F)F)C(=O)N(C)[C@@H](Cc2ccccc2)C(=O)NCC23CC(C2)(C3)C(=O)C[C@@H](Cc2ccccc2)C(=O)N1C [compound 290] (cyclo([Ala(cPr)][Phe(2-F)][Nle(5,5-F2)][NMeF][X34][NMeA][Ala(pyrimidin-5-yl)]))	rule met
CCCCC[C@@H]1NC(=O)[C@H](Cc2ccc(OC)cc2)NC(=O)[C@H](CC2CCC2)NC(=O)[C@H](Cc2cccnc2)NC(=O)[C@H](CCCNC(=N)N)NC(=O)[C@H](Cc2ccccc2)NC(=O)CSC[C@@](C)(C(N)=O)NC(=O)[C@H](Cc2cnco2)N(C)C1=O [compound 379] ({CH2CO}-FR[3Pal][Cba]Y(Me)[Ahp(2)][X20][αMeC]-NH2; thioether N-8)	rule met
CCCC[C@@H]1NC(=O)[C@H](Cc2cccnc2)NC(=O)[C@H](CCCn2ccnc2)N(C)C(=O)[C@H](Cc2ccccc2)N(C)C(=O)[C@@H]2C[C@H]2CNC(=O)[C@H](Cc2cccnc2)N(C)C(=O)[C@H](CCCC)NC(=O)[C@H](Cc2ccccc2F)NC1=O [compound 256] (cyclo([3Pal][Nle][Phe(2-F)][Nle][NMe3Pal][X21][NMeF][NMeNva(5-imidazol-1-yl)]))	rule not met
C[C@H]1C(=O)N[C@@H](Cc2cncnc2)C(=O)N[C@@H](CCCCF)C(=O)N[C@@H](Cc2ccccc2F)C(=O)N[C@@H](CCCCF)C(=O)N(C)[C@@H](Cc2ccccc2)C(=O)NCC23CC(C2)(C3)C(=O)O[C@@H](Cc2ccccc2)C(=O)N1C [compound 128] (cyclo([NMeA][Ala(pyrimidin-5-yl)][X17][Phe(2-F)][X17][NMeF][X1][PhLac]))	rule met
CCCC[C@@H]1NC(=O)[C@H](Cc2cncnc2)NC(=O)[C@H](C)N(C)C(=O)[C@H](Cc2ccccc2)OC(=O)C23CC(CNC(=O)[C@H](Cc4cccnc4)N(C)C(=O)[C@H](CCCC)NC(=O)[C@H](Cc4ccccc4F)NC1=O)(C2)C3 [compound 237] (cyclo([NMe3Pal][X1][PhLac][NMeA][Ala(pyrimidin-5-yl)][Nle][Phe(2-F)][Nle]))	rule met
CCCC[C@@H]1NC(=O)[C@H](Cc2cncnc2)NC(=O)[C@H](CCCn2ccnc2)N(C)C(=O)[C@H](Cc2ccccc2)OC(=O)C23CC(CNC(=O)[C@H](Cc4ccccc4)N(C)C(=O)[C@H](CCCC)NC(=O)[C@H](Cc4ccccc4F)NC1=O)(C2)C3 (single isomer, unassigned) [compound 222]	rule not met
CCCC[C@@H]1NC(=O)[C@H](Cc2cc(F)c(OC)c(F)c2)NC(=O)[C@H](C)N(C)C(=O)[C@H](Cc2ccccc2)OC(=O)C23CC(CNC(=O)[C@H](Cc4ccccc4)N(C)C(=O)[C@H](CCCC)NC(=O)[C@H](Cc4ccccc4F)NC1=O)(C2)C3 [compound 310] (cyclo([NMeA][X71][Nle][Phe(2-F)][Nle][NMeF][X1][PhLac]))	rule not met
CCCC[C@@H]1NC(=O)[C@H](Cc2ccc(O)cc2)NC(=O)[C@H](CC2CCOCC2)NC(=O)[C@H](Cc2ccc(NC(=N)N)cc2)NC(=O)[C@H](CCCNC(=N)N)NC(=O)[C@H](Cc2cccc3ccccc23)NC(=O)CSC[C@H](C(=O)O)NC(=O)[C@H](Cc2ccccc2)N(C)C1=O [compound 147] ({CH2CO}-[1Nal]R[Phe(4-guanidino)][Ala(4-THP)]Y[Nle][NMeF][dC]-OH; thioether N-8)	rule not met
CCCCC[C@@H]1NC(=O)[C@H](Cc2ccc(O)cc2)NC(=O)[C@H](CC(C)C)NC(=O)[C@H](Cc2ccc(O)cc2)NC(=O)[C@H](CCCNC(=N)N)NC(=O)[C@H](Cc2cccc3ccccc23)NC(=O)CSC[C@@H](C(N)=O)NC(=O)[C@H](Cc2ccccc2)N(C)C1=O [compound 7, cyclo(INal-R-Y-L-Y-Ahp-NMeF-Cl-ClAc)] ({CH2CO}-[1Nal]RYLY[Ahp(2)][NMeF]C-NH2; thioether N-8)	rule not met
CCCC[C@@H]1NC(=O)[C@H](Cc2ccccc2F)NC(=O)[C@H](CCN=[N+]=[N-])NC(=O)[C@H](Cc2cccnc2)NC(=O)[C@H](CCCC)N(C)C(=O)[C@H](Cc2ccccc2)OC(=O)C23CC(CNC(=O)[C@H](Cc4cccnc4)N(C)C1=O)(C2)C3 [compound 243] (cyclo([3Pal][Aha][Phe(2-F)][Nle][NMe3Pal][X1][PhLac][NMeNle]))	rule not met

###

# target: KRAS-G12D protein (Homo sapiens, UniProt P01116, G12D)
# protocol_summary: SOS-mediated nucleotide exchange assay (BODIPY-GDP / Tb-streptavidin TR-FRET)
# Type: biochemical
*1 amine or outer side, *2 acyl side, *3 side chain or, on linkers, in order; H or OH if unused. Where a SMILES comes first, the peptide text is derived from it. Bridges are numbered along the chain shown (N, C = ends). [ ]: non-standard residue; d: D form. X18 = CNC(=N)N(C)c1ccc(C[C@H](N[*:1])C(=O)[*:2])cc1; NMeAha = CN[C@@H](CCN=[N+]=[N-])C(=O)O; Phe(2-F) = N[C@@H](Cc1ccccc1F)C(=O)O; NMe3Pal = CN[C@@H](Cc1cccnc1)C(=O)O; X1 = O=C(C12CC(CN[*:1])(C1)C2)[*:2]; PhLac = O=C(O)[C@@H](O)Cc1ccccc1; X9 = CCCC[C@H](O[*:1])C(=O)[*:2]; 3Pal = N[C@@H](Cc1cccnc1)C(=O)O; αMeC = C[C@](N)(CS)C(=O)O; NMeA = CN[C@@H](C)C(=O)O; Nle = CCCC[C@H](N)C(=O)O
Quick list: EC50 per entry.

molecule	EC50 (nM)
CCCC[C@@H]1NC(=O)[C@H](Cc2ccc(N(C)C(=N)NC)cc2)NC(=O)[C@H](C)N(C)C(=O)[C@H](Cc2ccccc2)OC(=O)CSC[C@@](C)(C(N)=O)NC(=O)[C@H](Cc2cccnc2)N(C)C(=O)[C@H](CCCC)NC(=O)[C@H](Cc2ccccc2F)NC1=O [compound 397] ({CH2CO}-[PhLac][NMeA][X18][Nle][Phe(2-F)][Nle][NMe3Pal][αMeC]-NH2; thioether N-8)	2.73
CCCC[C@@H]1NC(=O)[C@H](Cc2cncnc2)NC(=O)[C@H](CCCn2ccnc2)N(C)C(=O)[C@H](Cc2ccccc2)OC(=O)C23CC(CNC(=O)[C@H](Cc4ccccc4)N(C)C(=O)[C@H](CCCC)NC(=O)[C@H](Cc4ccccc4F)NC1=O)(C2)C3 (single isomer, unassigned) [compound 223]	25.3
CCCC[C@@H]1NC(=O)[C@H](Cc2ccccc2F)NC(=O)[C@H](CCCC)OC(=O)[C@H](Cc2cccnc2)NC(=O)[C@H](CCN=[N+]=[N-])N(C)C(=O)[C@H](Cc2ccccc2)NC(=O)C23CC(CNC(=O)[C@H](Cc4cccnc4)N(C)C1=O)(C2)C3 [compound 250] (cyclo(F[NMeAha][3Pal][X9][Phe(2-F)][Nle][NMe3Pal][X1]))	3880
